system: E. coli ATCC 25922; assay type: cell-based, Escherichia coli; details: (Supplement 2)
Where a SMILES comes first, the peptide text is derived from it. [ ]: non-standard residue; d: D form. The star is where a group is joined. Octanoyl(7-Me) = CC(C)CCCCCC(=O)*; dOrn = NCCC[C@@H](N)C(=O)O; Orn = NCCC[C@H](N)C(=O)O
Observed property: MIC (µg/mL) against E. coli (ATCC 25922)
One number for each entry, in µg/mL.

Query: Find the recorded MIC (µg/mL) against E. coli (ATCC 25922) belonging to CC[C@H](C)[C@H](NC(=O)[C@H](CO)NC(=O)[C@H](Cc1c[nH]c2ccccc12)NC(=O)[C@@H](CCCN)NC(=O)CNC(=O)[C@H](CCCN)NC(=O)[C@@H](CCCN)NC(=O)[C@@H](Cc1c[nH]c2ccccc12)NC(=O)[C@@H](Cc1ccc(O)cc1)NC(=O)[C@@H](CO)NC(=O)CCCCCC(C)C)C(=O)N[C@@H](CC(N)=O)C(=O)NCC(=O)NCC(N)=O [LL(Ser9)-NH2 (46)] ({Octanoyl(7-Me)}-[dS][dY][dW][dOrn][Orn]G[dOrn]WSINGG-NH2) and report it.
Result: 4
